# Tested on: bombesin receptor
# run description: competitive binding assay, 125I-Bombesin, rat brain membranes
# condition label: inhibition of 0.01 nM 125I-Bombesin binding; rat brain membranes; test concentration not given
Square brackets hold non-standard residues; d marks the D form. Ends that are not written are not given here. pGlu = O=C1CC[C@@H](C(=O)O)N1; Nle = CCCC[C@H](N)C(=O)O
A collection of substances and their measured % Inhibition
Provide the reading as a plain figure in %.

// solved cases for % Inhibition follow
{"substance": "D-Phe-Gln-Trp-Cys-Ala-Val-Gly-His-Leu-Leu-NH2 ([dF]QWCAVGHLL-NH2; also: rhenium complex (oxorhenium(V) N3S1 chelate via Cys)) [8-7]", "reported metric": "% Inhibition", "meas value": 8}
{"substance": "D-Phe-Gln-Trp-Ala-Val-Gly-His-Leu-Cys-NH2 ([dF]QWAVGHLC-NH2; also: rhenium complex (oxorhenium(V) N3S1 chelate via Cys)) [9-1]", "reported metric": "% Inhibition", "meas value": 86}
{"substance": "Pyr-Gln-Arg-Leu-Gly-Asn-Gln-Trp-Ala-Val-Gly-Cys-His-Leu-Nle-NH2 ([pGlu]QRLGNQWAVGCHL[Nle]-NH2; numbers in words are those of the source; also: oxorhenium(V) N3S1 chelate (Re=O) with Cys) [6-4]", "reported metric": "% Inhibition", "meas value": 70}
{"substance": "Gln-Trp-Ala-Val-Cys-His-Leu-Leu-NH2 [11-7] (QWAVCHLL-NH2; not fully specified (bridges); printed as Gln-Trp-Ala-Val-Cys-His-Leu-Leu-NH2; also: oxorhenium(V) N3S1 chelate (Re(V)=O))", "reported metric": "% Inhibition", "meas value": 5}
{"substance": "D-Phe-Gln-Trp-Cys-Val-His-Leu-Leu-NH2 ([dF]QWCVHLL-NH2; not fully specified (bridges); printed as D-Phe-Gln-Trp-Cys-Val-His-Leu-Leu-NH2; also: oxorhenium(V) N3S1 chelate complex (Re=O)) [12-6]", "reported metric": "% Inhibition", "meas value": 10}
{"substance": "Ala-Val-Cys-NH2 (not fully specified (bridges); printed as Ala-Val-Cys-NH2; also: oxorhenium(V) N3S1 chelate (Re(V)=O)) [11-15]", "reported metric": "% Inhibition", "meas value": 4}
{"substance": "D-Phe-Gln-Trp-Val-Cys-Gly-His-Leu-Leu-NH2 ([dF]QWVCGHLL-NH2; also: oxorhenium(V) N3S1 chelate complex (Re=O)) [12-1]", "reported metric": "% Inhibition", "meas value": 2}
{"substance": "D-Phe-Gln-Trp-Ala-Val-Gly-His-Leu-Cys-Leu-NH2 ([dF]QWAVGHLCL-NH2; also: rhenium complex (oxorhenium(V) N3S1 chelate via Cys)) [8-2]", "reported metric": "% Inhibition", "meas value": 75}
{"substance": "Ala-Val-Cys-His-NH2 (AVCH-NH2; not fully specified (bridges); printed as Ala-Val-Cys-His-NH2; also: oxorhenium(V) N3S1 chelate (Re(V)=O)) [11-12]", "reported metric": "% Inhibition", "meas value": 5}

Item: Gln-Trp-Ala-Val-Cys-NH2 (QWAVC-NH2; not fully specified (bridges); printed as Gln-Trp-Ala-Val-Cys-NH2; also: oxorhenium(V) N3S1 chelate (Re(V)=O)) [11-13] Test system: bombesin receptor Read-out: % Inhibition Value: ?
−50

---

# tgt: MC1-R (Mus musculus)
# Construct: membranes prepared from hMC3-R, hMC4-R, hMC5-R, and B-16 mouse melanoma cells (containing MC1-R); endogenous in cells; host or cells: B-16 mouse melanoma cells (membranes)
# Sequence (Q01727 whole entry): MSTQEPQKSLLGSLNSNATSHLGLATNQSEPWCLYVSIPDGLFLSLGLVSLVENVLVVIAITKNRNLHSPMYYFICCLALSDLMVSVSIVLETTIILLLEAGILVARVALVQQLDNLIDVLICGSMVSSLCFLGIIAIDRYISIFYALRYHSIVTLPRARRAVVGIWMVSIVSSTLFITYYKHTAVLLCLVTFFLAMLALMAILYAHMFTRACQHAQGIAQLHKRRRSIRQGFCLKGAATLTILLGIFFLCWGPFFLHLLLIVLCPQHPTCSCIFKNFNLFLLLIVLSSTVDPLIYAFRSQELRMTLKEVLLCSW
# run description: competitive inhibition binding assay, 125I-NDP-alpha-MSH, B-16 mouse melanoma cell membranes
# condition label: 1 μM test peptide; 0.4 nM 125I-NDP-alpha-MSH; B-16 mouse melanoma cell membranes
# Protocol: The competitive inhibition binding assay was conducted using membranes prepared from hMC3-R, hMC4-R, hMC5-R, and B-16 mouse melanoma cells (containing MC1-R) using 0.4 nM ^125I-NDP-alpha-MSH (New England Nuclear, Boston, Mass., USA) in 50 mM HEPES buffer containing 1 mM MgCl2, 2 mM CaCl2, and 5 mM KCl, at pH 7.2. […] The filter was dried and counted in a gamma counter for remaining radioactivity bound to the membranes. […]
Square brackets hold non-standard residues; d marks the D form. Ends that are not written are not given here. Nle = CCCC[C@H](N)C(=O)O
A collection of substances and their measured % Inhibition at 1 μM at Melanocortin Receptor 1
Provide the reading as a plain figure in %.

{"substance": "Tyr-Val-Nle-Gly-His-D-Phe-Cys-Arg-Trp-Asp-Arg-Phe-NH2 (YV[Nle]GH[dF]CRWDRF-NH2; also: Re complex) [3-6]", "tgt": "MC1-R (Mus musculus)", "meas value": 52}
{"substance": "Ac-Ser-Tyr-Ser-Nle-Glu-His-Phe-Arg-D-Cys-Trp-Gly-Lys-Pro-Val-NH2 (chain 1 Ac-SYS[Nle]EHFR; chain 2 [dC]WGKPV-NH2; not fully specified (bridges); numbers in words are those of the source; also: oxorhenium(V) N3S1 chelate (Re(V)=O)) [2-6]", "tgt": "MC1-R (Mus musculus)", "meas value": 46}
{"substance": "Tyr-Val-Nle-Gly-His-Phe-Cys-Arg-Trp-Asp-Arg-Phe-NH2 (YV[Nle]GHFCRWDRF-NH2; numbers in words are those of the source; also: oxorhenium(V) N3S1 chelate (Re=O) with Cys) [4-6]", "tgt": "MC1-R (Mus musculus)", "meas value": "−8"}

Now look at this entry.
% Inhibition at 1 μM at Melanocortin Receptor 1 lookup needed for Tyr-Val-Nle-Gly-Cys-His-Phe-Arg-Trp-Asp-Arg-Phe-NH2 (YV[Nle]GCHFRWDRF-NH2; not fully specified (bridges); printed as Tyr-Val-Nle-Gly-Cys-His-Phe-Arg-Trp-Asp-Arg-Phe-NH2; numbers in words are those of the source; also: oxorhenium(V) N3S1 chelate (Re=O) with Cys) [4-8] , thanks.
13

---

# tgt: hMC4-R (Homo sapiens, UniProt P32245)
# Construct: expressed in transfected cells
# Sequence (P32245 whole entry): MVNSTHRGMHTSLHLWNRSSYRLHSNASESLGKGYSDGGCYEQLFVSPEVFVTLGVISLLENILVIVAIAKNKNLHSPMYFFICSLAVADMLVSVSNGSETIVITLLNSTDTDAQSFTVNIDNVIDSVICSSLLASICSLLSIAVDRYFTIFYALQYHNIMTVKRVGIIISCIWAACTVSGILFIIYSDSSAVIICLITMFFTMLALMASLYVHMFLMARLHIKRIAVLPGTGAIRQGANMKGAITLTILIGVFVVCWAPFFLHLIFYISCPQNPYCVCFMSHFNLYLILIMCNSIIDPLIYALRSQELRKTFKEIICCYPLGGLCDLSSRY
# run description: competitive inhibition binding assay, 125I-NDP-alpha-MSH, hMC4-R membranes
# condition label: 1 μM test peptide; 0.4 nM 125I-NDP-alpha-MSH; hMC4-R membranes
Square brackets hold non-standard residues; d marks the D form. Ends that are not written are not given here. Nle = CCCC[C@H](N)C(=O)O
Please enter Y where % Inhibition at 1 μM at Melanocortin Receptor 4 is greater than or equal to 4%, and N where it is lower.

Known results for substances:
{"substance": "Tyr-Val-Cys-Nle-Gly-His-D-Phe-Arg-Trp-Asp-Arg-Phe-NH2 (YVC[Nle]GH[dF]RWDRF-NH2; also: Re complex) [3-11]", "cat": "Y"}
{"substance": "Tyr-Val-Cys-Nle-Gly-His-Phe-Arg-Trp-Asp-Arg-Phe-NH2 (YVC[Nle]GHFRWDRF-NH2; not fully specified (bridges); printed as Tyr-Val-Cys-Nle-Gly-His-Phe-Arg-Trp-Asp-Arg-Phe-NH2; numbers in words are those of the source; also: oxorhenium(V) N3S1 chelate (Re=O) with Cys) [4-10]", "cat": "N"}
{"substance": "Ac-Ser-Tyr-Ser-Nle-Glu-His-Phe-Cys-Arg-Trp-Gly-Lys-Pro-Val-NH2 (Ac-SYS[Nle]EHFCRWGKPV-NH2; not fully specified (bridges); printed as Ac-Ser-Tyr-Ser-Nle-Glu-His-Phe-Cys-Arg-Trp-Gly-Lys-Pro-Val-NH2; numbers in words are those of the source; also: oxorhenium(V) N3S1 chelate (Re(V)=O)) [1-7]", "cat": "N"}

Consider the record given below.
% Inhibition at 1 μM at Melanocortin Receptor 4 >= 4% for Tyr-Val-Nle-Cys-His-D-Phe-Arg-Trp-Asp-Arg-Phe-NH2 (YV[Nle]CH[dF]RWDRF-NH2; not fully specified (bridges); printed as Tyr-Val-Nle-Cys-His-D-Phe-Arg-Trp-Asp-Arg-Phe-NH2; numbers in words are those of the source; also: oxorhenium(V) N3S1 chelate complex (Re=O)) [5-8] ?
Y

---

# Tested on: bombesin receptor
# run description: competitive binding assay, 125I-Bombesin, rat brain membranes
# condition label: inhibition of 0.01 nM 125I-Bombesin binding; rat brain membranes; test concentration not given
Square brackets hold non-standard residues; d marks the D form. Ends that are not written are not given here. pGlu = O=C1CC[C@@H](C(=O)O)N1; Nle = CCCC[C@H](N)C(=O)O
A collection of substances and their measured % Inhibition
Provide the reading as a plain figure in %.

{"substance": "D-Phe-Gln-Trp-Ala-Val-Cys-Gly-His-Leu-Leu-NH2 ([dF]QWAVCGHLL-NH2; also: oxorhenium(V) N3S1 chelate via Cys (Re(V)=O)) [8-5]", "readout unit": "%", "% Inhibition": 70}

Now look at this entry.
% Inhibition lookup needed for Pyr-Gln-Arg-Leu-Gly-Asn-Gln-Trp-Cys-Ala-Val-Gly-His-Leu-Nle-NH2 ([pGlu]QRLGNQWCAVGHL[Nle]-NH2; numbers in words are those of the source; also: rhenium complex (oxorhenium(V) N3S1 tetradentate chelate via Re=O core)) [6-7] , thanks.
62
